Reported IC50 is given for each of the following compounds.
- assayedTarget: UniProtKB P68400
- Sequence (P68400 2-329): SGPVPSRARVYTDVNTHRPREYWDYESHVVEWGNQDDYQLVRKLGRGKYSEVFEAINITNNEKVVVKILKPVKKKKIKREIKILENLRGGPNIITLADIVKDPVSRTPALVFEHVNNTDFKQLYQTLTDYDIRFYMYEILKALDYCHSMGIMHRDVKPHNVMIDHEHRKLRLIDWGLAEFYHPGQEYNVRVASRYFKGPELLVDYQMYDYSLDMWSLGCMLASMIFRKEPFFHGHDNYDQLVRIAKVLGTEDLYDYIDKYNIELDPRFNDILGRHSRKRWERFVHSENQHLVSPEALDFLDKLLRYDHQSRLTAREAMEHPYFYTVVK
# include the unit after the value

Problem: Recorded IC50 for Clc1ccc2cc(CNCCCCOCCNc3cc(-n4cnnc4)cc4[nH]ncc34)[nH]c2c1 , please?
Result: 0.00143 µM

Problem: # lookup: IC50 of N#CCc1cc(CNCCCCOC2CN(c3cc(-c4ccnnc4)cc4[nH]ncc34)C2)cc(OC(F)(F)F)c1
Result: 0.00525 µM

Problem: I am curious: what IC50 value has been reported for FC(F)(F)Oc1ccc(CNCCCNCCCOc2cc(-n3cnnc3)cc3[nH]ncc23)cc1Cl ?
Result: 0.278 µM

The record that follows has no IC50 shown yet.
Problem: I am curious: what IC50 value has been reported for O=C(CCNCc1ccc(OC(F)(F)F)c(Cl)c1)NCCCNc1cc(-c2ccncc2Cl)cc2[nH]ncc12 ?
Result: 0.0792 µM

====

- assayedTarget: intracellular CK2α (Homo sapiens, UniProt P19784)
- Sequence (P19784 whole entry): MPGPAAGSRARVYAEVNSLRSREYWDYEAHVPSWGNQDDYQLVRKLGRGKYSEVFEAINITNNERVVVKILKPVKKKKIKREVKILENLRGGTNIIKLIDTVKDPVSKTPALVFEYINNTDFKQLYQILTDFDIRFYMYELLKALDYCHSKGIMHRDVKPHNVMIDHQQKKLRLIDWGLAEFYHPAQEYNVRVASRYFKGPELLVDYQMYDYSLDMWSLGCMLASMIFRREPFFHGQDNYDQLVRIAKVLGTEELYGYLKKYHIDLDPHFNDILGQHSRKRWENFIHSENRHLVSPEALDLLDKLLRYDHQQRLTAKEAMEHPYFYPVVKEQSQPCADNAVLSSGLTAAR
- assay: Cell-based NanoBRET assay for inhibitor binding to intracellular CK2α
- protocolConditions: HCT116 cells transiently transfected with CSNK2A2-NanoLuc fusion vector; Tracer K-5; 2 h; read-out: Assay 3: NanoBRET ™ assay for binding to intracellular CK2α
- Description: This assay used the NanoBRET™ System (Promega), an energy transfer technique designed to measure molecular proximity in living cells. The assay measured the apparent affinity of test compounds by competitive displacement of a NanoBRET™ tracer reversibly bound to a NanoLucR luciferase CK2α fusion protein in cells. A fixed concentration of tracer was added to cells expressing the desired NanoLucR-CK2α fusion protein to generate a BRET reporter complex. […]
outcomeMeasure: pIC50
Just the number, please; pIC50 means minus log10 of the concentration in mol/L.

Problem: For the compound shown here, O=C(CCNCc1ccc(OC(F)(F)F)c(Cl)c1)NCCCNc1cc(-c2cc[nH]c(=O)c2)cc2[nH]ncc12 , give the reported pIC50.
Result: 6.12

Problem: Query: pIC50; subject: O=C(CCNCc1ccc(OC(F)(F)F)c(Cl)c1)NCCCNc1cc(-c2cnns2)cc2[nH]ncc12
Result: 7.75

Problem: Entry under review: N#Cc1cc(CNCCC(=O)NCCCNc2cc(-n3cnnc3)cc3[nH]ncc23)ccc1OC(F)(F)F . Reported pIC50?
Result: 4.87

Problem: Please report the recorded pIC50 for FC(F)(F)c1ccc2[nH]c(CNCCCCOCCNc3cc(-c4ccncn4)cc4[nH]ncc34)cc2c1 .
Result: 6.47

Problem: Any idea what its pIC50 is? The compound is N#Cc1cc(NCCCNC(=O)CCNCc2ccc(-c3ccccc3)c(Cl)c2)c2cn[nH]c2c1
Result: 6.35

Problem: Entry O=C(CCNCc1ccc(-c2ccccc2)c(Cl)c1)NCCCNc1cc(C2COC2)cc2[nH]ncc12 has what pIC50?
Result: 6.09

Problem: Look up pIC50 for this compound: O=C(CCNCc1ccc(OC(F)(F)F)c(Cl)c1)NCCCNc1cc(-n2cnnc2)cc2[nH]ncc12
Result: 6.34

Problem: Return reported pIC50; argument: O=C(CCNCc1ccc(-c2ccccc2)c(Cl)c1)NCCC(=O)Nc1cc(-n2cnnc2)cc2[nH]ncc12
Result: 5.17

Problem: Reported pIC50 for O=C(CCNCc1ccc(OC(F)(F)F)c(Cl)c1)NCCCNc1cccc2[nH]ncc12 : what is it?
Result: 4.57

Problem: I'd like to know its pIC50. The compound in question is Cn1c(CNCCC(=O)NCCCNc2cc(-n3cnnc3)cc3[nH]ncc23)cc2cc(C(F)(F)F)ccc21
Result: 6.10
